// provenance: ChEMBL document CHEMBL1201862

test system: SK-MEL-2; assay: NCI tumour cell line growth inhibition, 48 h
Active and inactive are the calls of the source. Rule as the data show it: active = GI50 up to about 1.1 µM and inactive = higher.
Parameter call: string, one of Yes (active), No (inactive)

Please review the entries below; each comes with its answer.
Could you kindly confirm the outcome this assay logged for COc1ccc(N(C)Sc2ccccc2)cc1 ? No

Per the assay record, what outcome was assigned to CCN(CC)CCNc1ccc2ncn3c4cc(OC)c(OC)c(O)c4c(=O)c1c23 ? No

Which outcome was entered for the compound COC(=O)[C@@H]1C=C[C@H](NC(C)=O)C1 in this test? No

Check the results log: what was the call for CCN1CCC(O)(c2ccc(C)cc2)C(C(=O)c2ccc(C)cc2)C1 (stereo unspecified) ? No

Could you kindly confirm the outcome this assay logged for CC1(Cl)CC2OC3(Br)C=CC(C)(O)C2(CC1Br)C3(C)C (stereo unspecified) ? No

I'd appreciate the recorded outcome for O=c1cc(-c2ccccc2)oc2ccc(Cl)cc12 from this test. No

Could you now consider this next compound?
What did the test return for O=[N+]([O-])c1cccc(-c2csc(N/N=C3\NC/C(=C/c4ccc5c(c4)OCO5)S3)n2)c1 ? No

---

tested on: NCI-H23; experiment: NCI tumour cell line growth inhibition, 48 h
The source made the active and inactive calls. Cut-off read from the data, not from the text of the source: active = GI50 up to about 1.1 µM and inactive = higher.
A correct response names exactly one class from active, inactive

Write down the call the test reported for this compound. Item: NNC(=O)CCc1ccc2ccc3ccccc3c2c1 inactive

Hi, sorry to bother you, what did the test record for CCOc1ccc2nc(NC(=O)C(=O)C3C(=O)C(CC4C(=O)c5ccccc5C4=O)C(=O)CC3(C)C)sc2c1 (stereo not given) ? inactive

---

system: NCI-H226; assay: NCI tumour cell line growth inhibition, 48 h
Activity calls are given as the source filed them. Rule as the data show it: active = GI50 up to about 1.1 µM and inactive = higher.
We begin with a simple list: items and their reported GI50.

Example cases with answers are listed next.
Which GI50 reading was recorded for the compound CCOC(=O)/C(C#N)=C/c1ccc(SCc2ccco2)c([N+](=O)[O-])c1 ? > 100 µM (inactive)

Consider the compound shown here: C[C@@H]1CC[C@@H](C)[C@](C)(CCc2ccoc2)C/C=C\C=C/1C(=O)O What is its recorded GI50? > 50 µM (inactive)

Need GI50, item C/C(CCn1[nH]c(=O)ccc1=O)=N\N=C(N)N > 100 µM (inactive)

New cases:
Entry CCN1CCC(O)(c2ccc(C)cc2)C(C(=O)c2ccc(C)cc2)C1 (stereo not given) : reported GI50 = ? > 100 µM (inactive)

Would you mind telling me what GI50 value was observed for CC1=C[C@H](O)[C@@]2(C)[C@@H]([C@@H]1C)[C@H]1CC[C@@H]3[C@@]4(C)CC[C@H](O)C(C)(C)[C@@H]4CC[C@@]3(C)[C@]1(C)C[C@@H]2O ? 23.1 µM (inactive)

Entry under review: COc1ccc(N2C(=O)[C@H]3[C@H]4CC(C(C)(C)C)CC[C@H]4c4c(n(C)c5ccccc45)[C@H]3C2=O)cc1 (stereo not given in full) . Reported GI50? > 100 µM (inactive)

Fill in: GI50 of O=c1cc(-c2cc(O)c(O)c(-c3c(O)cc4oc(-c5ccc(O)c(O)c5)cc(=O)c4c3O)c2)oc2cc(O)cc(O)c12 is ___ > 25 µM (inactive)

Entry O=C(O)/C(Cc1ccnc2ccccc12)=N\O : reported GI50 = ? > 100 µM (inactive)

Value lookup for GI50; key = COC(=O)/C=C\n1c(C)cc(=O)[nH]c1=O > 100 µM (inactive)

// GI50 lookup, key: COc1ccc(OC)c(SC(CC(=O)c2ccccc2)c2ccccc2)c1 (stereo not given) 14.3 µM (inactive)

# lookup: GI50 of C[Si](C)(C)OC1c2[nH]c3ccccc3c2CN2C(=O)CCC12 (stereo not given) > 100 µM (inactive)

For the compound OC(CN1CCCCC1)c1ccc(/C=C/c2ccc(Cl)cc2)cc1 (stereo not given) , what GI50 is on record? > 100 µM (inactive)

Dear colleague, I am looking for the recorded GI50 of the following compound: COC(=O)c1ccc(C)cc1CC1Cc2ccc(C)cc2C1=O (stereo not given) 6.04 µM (inactive)

What does the data say about its GI50? Entry: CC1=C(C(=O)Nc2ccccc2C)C(c2ccc(N(C)C)cc2)C(C(=O)Nc2ccccc2C)=C(C)N1 > 100 µM (inactive)

GI50 for CC(C)c1c(P(=O)(c2ccccc2)c2ccccc2)n(C)c2ccccc12 ? 52.8 µM (inactive)

---

test system: PC-3; test: NCI tumour cell line growth inhibition, 48 h
Active and inactive are the calls of the source. Rule as the data show it: active = GI50 up to about 1.1 µM and inactive = higher.
Form entry, call: pick from y for active, n for inactive

For orientation, consider the following solved cases.
What is the recorded call for this compound in the test? O=C1c2ccccc2CC12Cc1ccc3c(c1C2)CCC3 (stereo not given) n

Lab log entry: CCOC(=O)Cn1c(=O)c2cc(C)cc3c(Cl)nc4c(OC)c(OC)cc1c4c32 — outcome as called in the assay? n

State the result this test recorded for CCOC(=O)[C@@H]1CCN2CN(c3ccc(OC)cc3)N=C(c3ccccc3)[C@@]12c1ccccc1 . n

Tell me the assay call for Cc1cc2c(s1)C(=O)c1sccc1C2=O please. y

Name the outcome recorded for OC1(c2ccccc2)CC2CCC(C1)N2CCc1ccccc1 (stereo not given) in the assay. n

Short answer needed: outcome of this test for O=c1[nH]nc(-c2ccccc2)c2[nH]c3c4ccccc4ccc3c12 ? n

Recorded call for O=[N+]([O-])c1cc(Cl)cnc1Br ? n

Hi, sorry to bother you, what did the test record for CC1(C)/C(=N\Nc2ccc([N+](=O)[O-])cc2[N+](=O)[O-])C2CCC1C2 (stereo not given) ? n

Test call, this compound: O=C(O)/C(Cc1ccnc2ccccc12)=N\O n

Could you check what this test reported for CN(C)/C=N\c1nncc2[nH]nnc12 ? n

---
Query: recorded result category for CCOc1c2c(cc3c1C(=O)c1c(OC)cccc1C3=O)C=C(OC)CC2 in this test n

---

# GI50 per record follows
system: Hs-578T; experiment: NCI tumour cell line growth inhibition, 48 h
The source made the active and inactive calls. No stated cut-off is given here; in the data, active = GI50 up to about 1.1 µM and inactive = higher.

Consider the molecule COc1cc(/C=C2\N=C(c3ccccc3)N(c3ccc(C(=O)c4ccccc4)cc3N3C(=O)/C(=C/c4cc(OC)c(OC)c(OC)c4)N=C3c3ccccc3)C2=O)cc(OC)c1OC and give its measured GI50. 17.9 µM (inactive)

Next:
Please look up its GI50: CC(C)N1CC2CN(Cc3ccccc3)CC(C1)C2=O > 100 µM (inactive)

Entry CC1CC/C(=C\c2ccc(Cl)cc2)C2OC(N)=C(C#N)C(c3ccc(Cl)cc3)=C12 (stereo not drawn) : reported GI50 = ? 15.6 µM (inactive)

Endpoint output: GI50 of CC1=NN2C=Nc3c(c(-c4ccc(Cl)cc4)cn3-c3ccc(C)cc3)C2N1 (stereo not drawn) . Value? 11.3 µM (inactive)

I am curious: what GI50 value has been reported for O=c1cc(-c2cc(O)c(O)c(-c3c(O)cc4oc(-c5ccc(O)c(O)c5)cc(=O)c4c3O)c2)oc2cc(O)cc(O)c12 ? > 25 µM (inactive)

Sample CC1OC(OC2C(O[C@H]3CC[C@@]4(C)C(=CC[C@H]5[C@@H]6C[C@@H]7O[C@]8(CC[C@@H](C)CO8)[C@@H](C)[C@@H]7[C@@]6(C)CC[C@@H]54)C3)OC(CO)C(O)C2O)C(O)C(O)C1O (stereo partly drawn) — what was its GI50? 1.86 µM (inactive)

Fill blank: measured GI50 of the molecule CCOC(=O)C1=C(C)N(Cc2ccccc2)C2(O)C(OC)CC(=O)C3C(=O)N(c4ccccc4)C(=O)C132 (stereo not drawn) is ____. 83.4 µM (inactive)

What does the data say about its GI50? Entry: COc1ccc(/C=C/c2nsc(/C=C/c3ccc(OC)cc3)n2)cc1 > 100 µM (inactive)

---

tested on: KM12; assay: NCI tumour cell line growth inhibition, 48 h
Active and inactive are the calls of the source. Cut-off read from the data, not from the text of the source: active = GI50 up to about 1.1 µM and inactive = higher.
Form entry, call: pick from active, inactive

What outcome does the record of this test show for CC(=O)OC1(C(C)=O)CC2(c3ccccc3)OC1(c1ccccc1)c1ccccc12 (configuration not stated) ? inactive

Kindly review the next compound as well.
Write down the call the test reported for this compound. Item: O=C(O)C1CC2(C1)CC(C(=O)O)C2 (configuration not stated) inactive

---

tested on: KM-20L2; experiment: NCI tumour cell line growth inhibition, 48 h
Active and inactive are the calls of the source. Rule as the data show it: active = GI50 up to about 1.1 µM and inactive = higher.
// one of active, inactive, no free text

Any idea what this test logged for C=CCC(O[Si](C)(C)C(C)(C)C)c1cc(O[Si](C)(C)C(C)(C)C)ccc1OC (stereo unspecified) ? inactive

Kindly provide the recorded test outcome for the following compound: Nc1nc(N)c(-c2ccccc2)c(C(=O)Nc2ccccc2)n1 inactive

---

Entries annotated with measured GI50
test system: XF498; test: NCI tumour cell line growth inhibition, 48 h
Calls of active or inactive are those of the source. No stated cut-off is given here; in the data, active = GI50 up to about 1.1 µM and inactive = higher.

Example cases with answers are listed next.
# value lookup — system XF498, readout GI50, item COc1ccc2c3c1O[C@]1(C)C34CCN(C)C(C2)C42C=C[C@@]1(OC)c1c(O)ccc(O)c12 > 100 µM (inactive)

Request - read-out GI50 | tested on XF498 | molecule FC(F)(F)c1cccc(/C=N/C23CC4CC(CC(C4)C2)C3)c1 > 100 µM (inactive)

Form field: GI50 recorded for CC1(CO)OC(n2cc(C(=O)NC(=O)OCc3ccccc3)c(=O)[nH]c2=O)CC1O (configuration not stated) with XF498 (enter value) > 100 µM (inactive)

Missing value: GI50, XF498, entry COc1ccc(/C=C/C(=O)c2sc(-n3nc(-c4ccccc4)cc3-c3ccccc3)nc2C)cc1 . Fill in? 33.7 µM (inactive)

Requested read-out GI50, target or system XF498, entry COc1cccc(/C=C2\N=C(Cl)OC2=O)c1O > 100 µM (inactive)

More entries:
Test system XF498; read-out GI50; what value for Nc1c(-c2ccc(Cl)cc2Cl)[n+]([O-])c2ccccc2[n+]1[O-] ? > 100 µM (inactive)

Short answer please: GI50, XF498, entry C=C1C(=O)O[C@H]2[C@H]1[C@@H](OC(=O)C=C(C)C)CC1=C[C@@H](C[C@@]3(C)O[C@@H]23)OC1=O 2.05 µM (inactive)
